assay: yeast display, Sf9 membrane polyspecificity reagent, FACS + sequencing; frameworks hold sequencing errors
quantityMeasured: polyreactivity (PSR sort gate)

biosequence=QVQLVESGGGLVQAGGSLRLSCAASGSIFYDNAMGWYRQAPGKERELVAAITSTGGSTYYADSVKGRFTISRDNAKNTVYLQMNSLKPEDTAVYYCNTPTYLYWGFYTYDYWGQGTQVTVSS observedresult="low polyreactivity"
biosequence=QVQLVESGGGLVQAGGSLRLICDASGFTFGVYAMGWYRQAPGKETELVAAISTTVGSTYYADSVKGRFTISRDNAKNNVYLQLNRLKPEDTALYYCAAEYTGYLNYYIYEYWGQGTQVTVSS observedresult="low polyreactivity"

* * *

assay: yeast display, Sf9 membrane polyspecificity reagent, FACS + sequencing; frameworks hold sequencing errors
quantityMeasured: polyreactivity (PSR sort gate)

biosequence=QVQLVESGGGLVQAVCSLRLSCAASGRTFHGNAMGWYRQAPGKERELVAAISYSGGRTYYADSVKGRFTISRDNAKNTVYLQMNSLKPEDTAVYYCAAWGSSYSFDYWGQGTQVTVSS observedresult="high polyreactivity"
biosequence=QVQLVESGGGLVQAGGSLRLSCAASGFTFDFYVMGWYRPAPGTERELVAANSWDGGTTYYADSVKGRFTISRDNAKNTVYLQLNSLKPEDTAVYYCAADDWVYVPTGAWYLYEYWGQGTQVTVSS observedresult="high polyreactivity"

* * *

test: yeast display, Sf9 membrane polyspecificity reagent, FACS + sequencing; frameworks hold sequencing errors
quantityMeasured: polyreactivity (PSR sort gate)

biosequence=QVQLVESGGGLVQAGGSLRLSCAASGRIFKQYTMGWYRQAPGKERELVAAITSSGAGTFYADSVKGRFTISRDNAKNTVYLQMNSLKPEDTAVDYCAAAYYYASRMDYWGQGTQVTVSS quantitymeasured="polyreactivity (PSR sort gate)" observedresult="high polyreactivity"
biosequence=QVQLVETGGGLVQAGGSLRLSCAASGLSFGRNAIGSYRQAPGKERELVAAISRSGGRTSYADSVKGRFTISRDTAKNTVYLQMNSLKPEDTAVYYCAARSDVYTHDYWGQATQVTVSS quantitymeasured="polyreactivity (PSR sort gate)" observedresult="high polyreactivity"
biosequence=QVQLVESGGGLVQAGGSLRLSCAASGFTFRYYVMGWYRQAPGIERELVAAISWSGGSTYYADSVKGRFTISRDNAKYTVYLQMNSLNPEDTAVYYCNAASLSKSDYWGQGTQVTVSS quantitymeasured="polyreactivity (PSR sort gate)" observedresult="high polyreactivity"
biosequence=QVQLVESGGGLVQAGGSLRLSCAASGRIFRTNAMGWYRQAPGKERELVAAITFSGGGTYYADSVKGRFTISRDNAKNTVYLQMNSLKPEDTAVYYCATDWYYEYYYWGQGTQVTVSS quantitymeasured="polyreactivity (PSR sort gate)" observedresult="low polyreactivity"
biosequence=QVQLVESGGGLVQAGGSLRLSCAASGFTFSSYDMGWYRQAPGKDRDLVAAIDFIDGSTYYADSVKGRFTISRDNAKKTVYLQKNSLKPEDTAVYYCAADPVFKVELWPVRVRVDYWGQGTQVTVSS quantitymeasured="polyreactivity (PSR sort gate)" observedresult="low polyreactivity"
biosequence=QVQLVESGGGLVQAGGSLRLSCAASGSIFNSNAMGWYRQAPGKERELVAAITGSGGRTYYADSVKGRFTISRDNAKNTVYLQMNSLKPEDTAVYYCNAVTYSRRYAYYYWGQGTQVTVSS quantitymeasured="polyreactivity (PSR sort gate)" observedresult="high polyreactivity"
biosequence=QVQLVESGGRLVQAGGSLRLSCDASGRTFYTNAMGWYRQEPGKEMELVAAISGRGSTYYADSVTGRFTISRDNAKNTVYLQMNSLKPEDTAVYYCAALLPGRSSSDYWGQGTQVTVSS quantitymeasured="polyreactivity (PSR sort gate)" observedresult="high polyreactivity"
biosequence=QVQLGESGGGLVQAGGSLRLSCAASGLTFYLYVMGWYRQAPGTERELVAAISRRGGSTYYADSVKGRFTISRDNAKNTVYLQMNSLNPEDTAVYYCAASVYGTYRGIQYGYWGQGTQVTVSS quantitymeasured="polyreactivity (PSR sort gate)" observedresult="high polyreactivity"
biosequence=QVQLVESGGGIVQAGGSLRLSCAASGLTICDYAMGWYRQAPGKERELVAAISSSGGRTYYADSVKGRFTISRDNAKNTVYLQMNSLKPEDTAVYYCAAQSKYYQYYSWGQGTQVTVSS quantitymeasured="polyreactivity (PSR sort gate)" observedresult="high polyreactivity"
biosequence=QVQLVESGGGLVQAGGSLRLSCAASGSIFSYYAMGWYRQAPGKERVLVAAIRRGGSTNYADSVKGRFTISRDNAKNTVYLQLNSLKPEDTAVYYCAASLGWRFYYWGQGTQVTVSS quantitymeasured="polyreactivity (PSR sort gate)" observedresult="high polyreactivity"
biosequence=QVQLVESGGGLVQAGGSLRLSCAASGRIFASYAMGWYRQAPGKERELVAAITRSGGRTYYADSVKGRFTISRDNAKNTVYLQMNSLKPADTAVDYCAVDTVTRTVLVYGDRNDSWGQGTQVTVSS quantitymeasured="polyreactivity (PSR sort gate)" observedresult="high polyreactivity"
